Origin of values: PubChem BioAssay AID651958

Please respond with reported inhibition for every item in the list.
# Test system: Crimean-Congo hemorrhagic fever virus L polyprotein viral ovarian tumor (vOTU) protease domain
# TEST DESCRIPTION: CCHFV vOTU protease inhibitors, primary screen, biochemical, Pep-AMC substrate, fluorescence (AID 651958); note: 0% = vehicle wells with enzyme and 100% = no enzyme wells
# CONDITION NOTES: at 11.5 µM, hits give high values
Hit rate of the full screen: of about 370,000 compounds, about 2,000 (0.54%) were called active. Shown is part of a subset that was picked to be rich in actives.
One number for each entry, in %.

See these solved cases before continuing.
* N#Cc1cccc(C(=O)NCC2CCN(C(=O)C(=O)c3cc4ccccc4o3)CC2)c1 | 5.69
* CC(=O)Nc1ccc(C(=O)NNC(=O)CCCCC(=O)NNC(=O)c2ccc(NC(C)=O)cc2)cc1 | 2.99
* O=C(CSc1nnc(COc2ccccc2)n1Cc1ccco1)c1ccc2ccccc2c1 | 7.39
* CCCC(=O)NC(=S)Nc1ccc(CN2CCOCC2)cc1 | 9.86
* CC(=O)NS(=O)(=O)c1ccccc1 | -12.3

Could I get inhibition for every one of these entries?
1. Cc1ccc(S(=O)(=O)N2CCOCC2)cc1C(=O)NC(=S)N(Cc1ccccc1)C(C)C
2. CCOC(=O)C1=C(C)c2ccccc2OC1C(=O)OCC (configuration not stated)
3. O=C(COc1coc(CN2CCN(c3ccccc3)CC2)cc1=O)N1CCc2ccccc21
4. CCCS(=O)(=O)NC(=O)C1(C)CCCN(C(=O)c2cccs2)C1 (configuration not stated)

1. -6.59
2. 16.2
3. -8.86
4. 4.76

* * *

# Tested on: Crimean-Congo hemorrhagic fever virus L polyprotein viral ovarian tumor (vOTU) protease domain
# TEST DESCRIPTION: CCHFV vOTU protease inhibitors, primary screen, biochemical, Pep-AMC substrate, fluorescence (AID 651958); note: 0% = vehicle wells with enzyme and 100% = no enzyme wells
# CONDITION NOTES: at 11.5 µM
Hit rate of the full screen: of about 370,000 compounds, about 2,000 (0.54%) were called active. Cut-off read from the data, not from the text of the source: active = inhibition above about 30%; inactive = the rest. This excerpt belongs to a sample that is enriched for actives.
I would appreciate it if you answered using one of these outcomes: active, inactive

Past entries and their recorded results:
- CCN(CC)CCn1c(=S)[nH]c2ncccc2c1=O: inactive
- O=C(c1ccc(F)cc1)N1CCC(C(=O)N2CCN(S(=O)(=O)c3ccccc3Br)CC2)CC1: inactive
- COc1cc(CN2CCCC(C(=O)c3ccc(SC)cc3)C2)cc(Cl)c1O (stereo unspecified): inactive
- COC(=O)[C@]1(Cc2ccccc2)N[C@H](CN(C)S(=O)(=O)c2ccc(OC(F)(F)F)cc2)[C@@H]2C(=O)N(Cc3ccccc3)C(=O)[C@@H]21: inactive
- COP(=O)(OC)C(NC(=O)c1ccc(C)cc1)C(Cl)(Cl)Cl (stereo unspecified): inactive
- COc1ccc(C2=Nc3cc(C)ccc3OC2)cc1: inactive

Any idea what this test logged for Cc1ccc(-c2ccc(/C=C(\C#N)C(N)=S)o2)c([N+](=O)[O-])c1 ?
inactive

Would you mind telling me which call this test gave CCOC(=O)N1CCN(Cc2nc3cc(NC(=O)CC)ccc3n2CC)CC1 ?
inactive

For CCCNC(=O)C1(C)CCN(C(=O)c2cc(F)ccc2C)C1 (stereo unspecified) , what call appears in the results of this test?
inactive

Hi, sorry to bother you, what did the test record for CC1=NN(c2ccc(Cl)c(C(=O)O)c2)C(=O)/C1=C/c1ccc(-c2ccccc2[N+](=O)[O-])o1 ?
active

Per the assay record, what outcome was assigned to Cc1cc(Cl)c(S(=O)(=O)NCc2cccnc2)cc1OCC(N)=O ?
inactive

* * *

Hi there, I'd appreciate the recorded inhibition for every entry that follows.
# Tested on: Crimean-Congo hemorrhagic fever virus L polyprotein viral ovarian tumor (vOTU) protease domain
# TEST DESCRIPTION: CCHFV vOTU protease inhibitors, primary screen, biochemical, Pep-AMC substrate, fluorescence (AID 651958); note: 0% = vehicle wells with enzyme and 100% = no enzyme wells
# CONDITION NOTES: at 11.5 µM, hits give high values
About 2,000 (0.54%) of roughly 370,000 compounds were called active. This is one part of a sample in which actives are shown more often than they occur.
Give bare numbers, in %.

A selection of reference data follows.
- COc1ccccc1N(CC(=O)Nc1ccc(C)cc1Cl)S(=O)(=O)c1cccs1: 1.37
- COC(=O)C1=CN(c2c(C)cc(C)cc2C)C(N)=C(C#N)C1c1cccc(F)c1 (centres undefined): 4.61
- O=C(NCc1ccc(F)cc1)c1cc(C2CCCCN2C(=O)c2cccs2)on1 (centres undefined): -3.47

Now take the following molecule into account.
O=C(NCc1ccc(F)cc1)c1cc(C2CCCCN2C(=O)c2ccccn2)on1 (centres undefined) has a reported inhibition of 11.8

* * *

# Tested on: Crimean-Congo hemorrhagic fever virus L polyprotein viral ovarian tumor (vOTU) protease domain
# TEST DESCRIPTION: CCHFV vOTU protease inhibitors, primary screen, biochemical, Pep-AMC substrate, fluorescence (AID 651958); note: 0% = vehicle wells with enzyme and 100% = no enzyme wells
# CONDITION NOTES: at 11.5 µM, hits give high values
In all, about 370,000 compounds went through this assay and about 2,000 (0.54%) were called active. This is one part of a sample in which actives are shown more often than they occur.
REPORTED METRIC: inhibition (%)
One number for each entry, in %.

• COCCNC(=O)Nc1ccc2nc(-c3ccco3)c(-c3ccco3)nc2c1 = 36
• CN1CCN(S(=O)(=O)c2cccc(C(=O)Nc3sccc3C#N)c2)CC1 = -2.97
• CCCc1ccc(OCC(O)CN2CCN(CCO)CC2)cc1 (stereo not drawn) = -10.8
• CCCCNC(=O)C1CCC(=O)N1CCc1ccccc1 (stereo not drawn) = 0.15
• O=C1NC[C@@H](CCCCN2CCN(CCc3ccc(O)cc3)C(=O)C2=O)N(CC2CCCCC2)C1=O = -7.64

I'm hoping you can list inhibition for every compound here, please.
1. CCc1ccc(NC(=O)CN2C(=O)COc3ccc(S(=O)(=O)N4CCCC4)cc32)cc1
2. OCc1nc(CO)n(Cc2ccccc2)n1
3. O=[N+]([O-])c1ccc(NS(=O)(=O)c2ccccc2)c(Cl)c1

1: -0.54; 2: -7.04; 3: 12.9

Could I get inhibition for every one of these entries?
1. Cc1ccc(-n2c(SCC(=O)Nc3cccc4ccccc34)nnc2-c2ccccn2)cc1
2. O=C(NCCc1c[nH]c2ccc(Cl)cc12)c1ccc([N+](=O)[O-])cc1
3. Cc1ncc([N+](=O)[O-])n1CCOC(=O)c1ccc(Br)cc1
4. C=CCn1c(N)cc(=O)nc1SCC(=O)Nc1cccc2ccccc12
5. O=S(=O)(Cc1noc(-c2ccc(OC(F)(F)F)cc2)n1)c1ccc(F)cc1
6. COCCn1c(SCc2nc3cc(OC)c(OC)cc3c(=O)[nH]2)nnc1-c1ccncc1
7. Cc1ccc(S(=O)(=O)N2CCN(C(=O)c3cccs3)CC2)cc1
8. CC1(C)CN(CCc2ccccc2)C(=O)[C@H]1CC(=O)Nc1ccc(Br)cc1

-2.55
-0.42
-0.48
-1.46
2.35
-3.09
-14.5
21.8

Batch lookup, inhibition per entry.
1. O=C(Nc1cccc2c1CCCC2)C1CCN(C(=O)NC2CCCCC2)CC1
2. CC1=C2C(=O)C3C(CC=C4CC(OC5OC(O)C(O)C(O)C5CO)CCC43C)C2CCC12OC1CC(C)CNC1C2C (stereo not drawn)
3. O=C(COCc1cc(-c2ccc3c(c2)OCO3)on1)N1CCN(c2cccc(Cl)c2)CC1
4. O=C(Cc1ccc(NC(=O)C2CCCN(C(=O)CCc3ccccc3)C2)cc1)Nc1ccc(C(=O)N2CCOCC2)cc1 (stereo not drawn)

1: -8.92; 2: -3.46; 3: 7.08; 4: 23.1

Please go through the list and note inhibition for each compound.
1. COc1ccc(CN2C(CC(=O)Nc3cccnc3)c3ccc(C(F)(F)F)cc3S2(=O)=O)cc1 (stereo not drawn)
2. COC(=O)[C@@]12C[C@@H](CC(=O)NCc3cccc(C(F)(F)F)c3)C(=O)N(Cc3ccco3)C1=CCC(C)(C)C2
3. NS(=O)(=O)c1ccc(CCNC(=O)c2ccc(Cl)cc2[N+](=O)[O-])cc1
4. CCOC(=O)[C@]12CCC=C1N(Cc1ccco1)C(=O)[C@H](CC(=O)NCc1cccc(C(F)(F)F)c1)C2

1: 1.05; 2: 34.5; 3: 2.43; 4: 15.5

Hello, I would appreciate it if you could give inhibition for each entry below.
1. COc1ccc(C(N)c2csc(NC(=O)Nc3cccc(C(F)(F)F)c3)n2)cc1 (stereo not drawn)
2. O=C(Nc1cccc(S(=O)(=O)N2CCCCC2)c1)c1cncc(Br)c1
3. O=C(CSc1nnc2c(n1)[nH]c1ccccc12)NC1CCCCC1
4. OCC(CO)(CO)NCc1ccc(-c2ccccc2)cc1

1: 36.4; 2: 17.5; 3: -13; 4: -4.11

* * *

# Test system: Crimean-Congo hemorrhagic fever virus L polyprotein viral ovarian tumor (vOTU) protease domain
# TEST DESCRIPTION: CCHFV vOTU protease inhibitors, primary screen, biochemical, Pep-AMC substrate, fluorescence (AID 651958); note: 0% = vehicle wells with enzyme and 100% = no enzyme wells
# CONDITION NOTES: at 11.5 µM
Hit rate of the full screen: of about 370,000 compounds, about 2,000 (0.54%) were called active. No stated cut-off is given here; in the data, active means inhibition above about 30%; inactive means the rest. Only a selection was taken, and actives are over-represented in it overall.
API: response.call in active, inactive

Example entries and their recorded answers appear below.
- CCOc1cc(S(=O)(=O)NC2CC(C)(C)NC(C)(C)C2)ccc1F: inactive
- O=C(CCS(=O)(=O)c1ccccc1)Nc1ccc(Cl)c(Cl)c1: inactive
- COc1ccc(Br)cc1S(=O)(=O)N1CCN=C1C: inactive

Given CC1CCCN(S(=O)(=O)c2ccc(N(C(=O)c3cnccn3)C(C(=O)NC3CCCCC3)c3cccs3)cc2)C1 (stereo not drawn) , state the outcome it received in this test.
inactive

Can you look up the reported call for Cc1nc2ccccc2c(=O)n1-c1ccc(F)c(NC(=O)c2cccs2)c1 for me?
inactive

What did the test return for COc1ccc(C(C#N)N2N=C(C)CC2(C)C)cc1 (stereo not drawn) ?
inactive

Answer briefly: the call reported for C=CCC[C@H](CCCCC)OC(=O)/C=C/[C@H](O)[C@@H](O)C[C@@H](O)CC=C in this assay.
inactive
